# subject of test: human ASBT (Homo sapiens, UniProt Q12908)
# Sequence (Q12908 whole entry): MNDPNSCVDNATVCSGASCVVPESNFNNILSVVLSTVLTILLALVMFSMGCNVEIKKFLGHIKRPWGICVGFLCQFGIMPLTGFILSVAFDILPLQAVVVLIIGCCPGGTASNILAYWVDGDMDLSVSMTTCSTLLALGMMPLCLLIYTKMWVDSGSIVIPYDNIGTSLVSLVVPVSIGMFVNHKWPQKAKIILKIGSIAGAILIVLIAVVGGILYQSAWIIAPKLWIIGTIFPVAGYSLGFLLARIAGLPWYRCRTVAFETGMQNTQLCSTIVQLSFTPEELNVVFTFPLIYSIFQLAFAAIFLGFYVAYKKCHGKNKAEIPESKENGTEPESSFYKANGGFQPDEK
# Assay type: cell-based
# conditions used: read-out: Estimated Ki for ASBT
Counter-ions that a name gives are not always drawn.
measurement label: potency estimated from few doses (µM)

Example compounds with recorded potency estimated from few doses:
>  <compound>
CC(C)c1nc(N(C)S(C)(=O)=O)nc(-c2ccc(F)cc2)c1/C=C/[C@@H](O)C[C@@H](O)CC(=O)O

>  <potency estimated from few doses / µM>
164

$$$$
>  <compound>
CCOC(=O)C1=C(C)NC(C)=C(C(=O)OC)C1c1cccc([N+](=O)[O-])c1 (centres unmarked)

>  <potency estimated from few doses / µM>
31.7

$$$$
>  <compound>
CN/C(=N/CCSCc1nc[nH]c1C)NC#N

>  <potency estimated from few doses / µM>
208

$$$$
>  <compound>
CCCCC(=O)N(Cc1ccc(-c2ccccc2-c2nnn[nH]2)cc1)[C@H](C(=O)O)C(C)C

>  <potency estimated from few doses / µM>
1260

$$$$
>  <compound>
CCCC1O[C@@H]2C[C@H]3[C@@H]4CCC5=CC(=O)C=C[C@]5(C)[C@H]4[C@@H](O)C[C@]3(C)[C@]2(C(=O)CO)O1 (some centres unmarked) [Budesonide]

>  <potency estimated from few doses / µM>
62.6

$$$$
>  <compound>
CCCNCC(O)COc1ccccc1C(=O)CCc1ccccc1 (centres unmarked) [Propafenone HCl]

>  <potency estimated from few doses / µM>
50.3

$$$$

1. Clc1ccc(COC(Cn2ccnc2)c2ccc(Cl)cc2Cl)cc1 (centres unmarked)
2. Nc1nc(NC2CC2)c2ncn([C@H]3C=C[C@@H](CO)C3)c2n1
[in] Of 1 versus 2 , which is the one with smaller reported potency estimated from few doses? Mark your answer with the label of the selected entry.
[out] 1

----------
# Lookup of reported viability at 10 min, 100 μM keyed by entry
# protocol notes: Cytotoxicity study
# conditions used: dog, ASBT-MDCK cells
Answer with a number only, understood to be in %.

>  <compound>
CC(C)OC(=O)C(C)(C)Oc1ccc(C(=O)c2ccc(Cl)cc2)cc1 [Fenofibrate]

>  <value unit>
%

>  <endpoint result>
79.2

$$$$

Field: next compound
[in] Note viability at 10 min, 100 μM for the compound shown: CCCCC(=O)N(Cc1ccc(-c2ccccc2-c2nnn[nH]2)cc1)[C@H](C(=O)O)C(C)C
[out] 77.9

----------
# subject of test: human ASBT (Homo sapiens)
# Assay type: cell-based
# conditions used: read-out: Estimated Ki for ASBT
measurement label: potency estimated from few doses (µM)

Below, each entry is followed by its recorded potency estimated from few doses result.
>  <compound>
COc1ccc2c(c1)c(CC(=O)O)c(C)n2C(=O)c1ccc(Cl)cc1

>  <value unit>
µM

>  <potency estimated from few doses>
31.3

$$$$
>  <compound>
CC[C@H](C)C(=O)O[C@H]1C[C@@H](C)C=C2C=C[C@H](C)[C@H](CC[C@@H]3C[C@@H](O)CC(=O)O3)[C@H]21

>  <value unit>
µM

>  <potency estimated from few doses>
21.7

$$$$
>  <compound>
COC(=O)C1=C(C)NC(C)=C(C(=O)OC(C)C)C1c1cccc2nonc12 (centres unmarked)

>  <value unit>
µM

>  <potency estimated from few doses>
17.9

$$$$
>  <compound>
CCCCOc1cc(C(=O)NCCN(CC)CC)c2ccccc2n1

>  <value unit>
µM

>  <potency estimated from few doses>
85.8

$$$$
>  <compound>
Clc1ccc(COC(Cn2ccnc2)c2ccc(Cl)cc2Cl)c(Cl)c1 (centres unmarked)

>  <value unit>
µM

>  <potency estimated from few doses>
61.3

$$$$
>  <compound>
O=C1C(CC[S+]([O-])c2ccccc2)C(=O)N(c2ccccc2)N1c1ccccc1 (centres unmarked)

>  <value unit>
µM

>  <potency estimated from few doses>
529

$$$$

a. CCC1(C)CC(=O)NC1=O (centres unmarked) [Ethosuximide]
b. COC(=O)C1=C(C)NC(C)=C(C(=O)OCCN(C)Cc2ccccc2)C1c1cccc([N+](=O)[O-])c1 (centres unmarked)
c. CC(C)[C@H]1CC[C@H](C(=O)N[C@H](Cc2ccccc2)C(=O)O)CC1 [Nateglinide]
d. CC(C)C[C@H](NC(=O)[C@H](Cc1ccccc1)NC(=O)c1cnccn1)B(O)O
e. N[C@@H](C(=O)N[C@@H]1C(=O)N2C(C(=O)O)=C(Cl)CS[C@H]12)c1ccccc1
[in] Rank items: key potency estimated from few doses, increasing. Provide the labels, sequenced as the question asks.
[out] c, b, a, d, e

A. COc1ccc2cc([C@H](C)C(=O)O)ccc2c1
B. CCCCc1ncc(/C=C(\Cc2cccs2)C(=O)O)n1Cc1ccc(C(=O)O)cc1
C. CCCN(CCC)S(=O)(=O)c1ccc(C(=O)O)cc1
[in] # rank by potency estimated from few doses, ascending (min first) // ordering of labels required in reply
[out] A, B, C

a. Nc1nc(N)c2nc(-c3ccccc3)c(N)nc2n1
b. Nc1ccc(S(N)(=O)=O)cc1 [Sulfanilamide]
c. CCCc1nc(C(C)(C)O)c(C(=O)O)n1Cc1ccc(-c2ccccc2-c2nnn[nH]2)cc1
[in] # rank by potency estimated from few doses, ascending (min first) Lab note: final answer is the ordered label list.
[out] a, b, c

----------
# subject of test: UniProt:Q14973
# Type: cell-based
# conditions used: inhibitor = Ki less than 300 μM

>  <compound>
CCCCC1=NC2(CCCC2)C(=O)N1Cc1ccc(-c2ccccc2-c2nnn[nH]2)cc1

>  <subject of test>
UniProt:Q14973

>  <NTCP inhibitor or non-inhibitor>
inhibited NTCP

$$$$
>  <compound>
Nc1ccc(S(N)(=O)=O)cc1 [Sulfanilamide]

>  <subject of test>
UniProt:Q14973

>  <NTCP inhibitor or non-inhibitor>
inhibited NTCP

$$$$
>  <compound>
CCOc1nc2cccc(C(=O)O)c2n1Cc1ccc(-c2ccccc2-c2nnn[nH]2)cc1

>  <subject of test>
UniProt:Q14973

>  <NTCP inhibitor or non-inhibitor>
inhibited NTCP

$$$$

----------
Reported potency estimated from few doses values are given for each entry in this list.
# subject of test: human NTCP (Homo sapiens)
# Sequence (Q14973 whole entry): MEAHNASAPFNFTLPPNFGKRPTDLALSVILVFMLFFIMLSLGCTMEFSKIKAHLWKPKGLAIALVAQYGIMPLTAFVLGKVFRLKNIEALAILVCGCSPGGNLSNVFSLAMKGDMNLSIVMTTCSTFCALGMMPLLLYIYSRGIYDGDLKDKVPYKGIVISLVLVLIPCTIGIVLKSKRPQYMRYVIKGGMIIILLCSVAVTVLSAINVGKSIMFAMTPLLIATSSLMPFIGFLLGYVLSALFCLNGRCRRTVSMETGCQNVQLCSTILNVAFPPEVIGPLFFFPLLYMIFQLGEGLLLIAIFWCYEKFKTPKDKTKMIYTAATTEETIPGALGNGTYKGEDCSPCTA
# Type: cell-based
# conditions used: read-out: Estimated Ki for NTCP

Here is how some compounds turned out for potency estimated from few doses.
>  <compound>
C[C@H]1O[C@H](O[C@H]2[C@H](O)[C@@H](O)[C@@H](O[C@H]3[C@H](O)[C@@H](O)C(O)O[C@@H]3CO)O[C@@H]2CO)[C@H](O)[C@@H](O)[C@@H]1N[C@H]1C=C(CO)[C@@H](O)[C@H](O)[C@H]1O (stereo partly drawn)

>  <subject of test>
human NTCP (Homo sapiens)

>  <potency estimated from few doses>
> 100 µM

$$$$
>  <compound>
CCOC(=O)C1=C[C@@H](OC(CC)CC)[C@H](NC(C)=O)[C@@H](N)C1

>  <subject of test>
human NTCP (Homo sapiens)

>  <potency estimated from few doses>
> 100 µM

$$$$

[in] Read off the recorded potency estimated from few doses for CCCCOc1cc(C(=O)NCCN(CC)CC)c2ccccc2n1
[out] > 100 µM

----------
# subject of test: human ASBT (Homo sapiens, UniProt Q12908)
# Type: cell-based
# conditions used: read-out: Estimated Ki for ASBT
measurement label: potency estimated from few doses (µM)

>  <compound>
CN1CCN(CCCN2c3ccccc3Sc3ccc(Cl)cc32)CC1

>  <potency estimated from few doses, µM>
27.4

$$$$
>  <compound>
CC(=O)CC(c1ccccc1)c1c(O)c2ccccc2oc1=O (stereo not drawn)

>  <potency estimated from few doses, µM>
97.4

$$$$

I. COCCOC(=O)C1=C(C)NC(C)=C(C(=O)OC(C)C)C1c1cccc([N+](=O)[O-])c1 (stereo not drawn)
II. CN1CCC[C@@H]1Cc1c[nH]c2ccc(CCS(=O)(=O)c3ccccc3)cc12
III. C[C@H]1O[C@H](O[C@H]2[C@H](O)[C@@H](O)[C@@H](O[C@H]3[C@H](O)[C@@H](O)C(O)O[C@@H]3CO)O[C@@H]2CO)[C@H](O)[C@@H](O)[C@@H]1N[C@H]1C=C(CO)[C@@H](O)[C@H](O)[C@H]1O (stereo partly drawn)
IV. CN(C)CCCN1c2ccccc2Sc2ccc(Cl)cc21
[in] Exam item: list the entries in increasing order of potency estimated from few doses. Answer by naming the labels in the order asked.
[out] I, IV, II, III
(I: 30.9 µM, IV: 50.7 µM, II: 137 µM, III: 318 µM)
